Could you please report measured IC50 for the items listed next?
molecular target: HLA-A*0206 (human); experiment: competition with 125I probe peptide on purified HLA, gel filtration; details: remark: other sources report otherwise
Give bare numbers, in nM.

These recorded examples may help you get a feel for the data.
In [3]: df
Out[3]:
                                     binder  experimental_readout  reported
0  PLLLWQPIPV [Peptide 63.0042 … (PAP.134.L2)]                  IC50       336
1  GVSIWNPILV [Peptide 63.0041 … (PAP.128.V10)]                  IC50       451

Shifting focus to the binder that follows.
-- ask Recorded IC50 of ALFPPEGVSI [Peptide 1419.6 … (PAP.122)] , please.
-- reply 2640
